- Test system: MDA-MB-231 breast
- Protocol: NCI tumour cell line growth inhibition, 48 h
Would you kindly list TGI for each of these molecules?

Examples with their reported TGI follow.
{"Molecule": "Cc1nn(C(=O)c2ccccc2O)c2c1C(c1ccccc1O)SC(N)=N2 (centres undefined)", "Measure name": "TGI", "Measured": "> 10 µM"}
{"Molecule": "COc1ccc(-c2c(-c3cc(OC)c(OC)c(OC)c3)nc3sc(C4CC4)nn23)cc1OC", "Measure name": "TGI", "Measured": "> 100 µM"}
{"Molecule": "COc1ccc(-c2cn3c(nc4ccccc43)c(/C=C/c3cccs3)n2)cc1", "Measure name": "TGI", "Measured": "> 100 µM"}
{"Molecule": "Cc1ccc(/C(=N/NS(=O)(=O)c2ccc([N+](=O)[O-])cc2)Sc2cc(Cl)c(C)cc2S(N)(=O)=O)cc1", "Measure name": "TGI", "Measured": "> 100 µM"}
{"Molecule": "CCOC(=O)c1ccc2c(c1)[n+](=O)c(C(=O)C1CCCS1)c(C(F)(F)F)n2[O-] (centres undefined)", "Measure name": "TGI", "Measured": "1.78 µM"}
{"Molecule": "COc1ccc2c(c1)C(N)=C(c1ccccc1OC)C2=O", "Measure name": "TGI", "Measured": "> 100 µM"}
{"Molecule": "CCC(O)CC1OC2(CCC1C)CC1OC(=O)/C=C\\C(C)(O)C(O)C(C)C(O)C(OC3CC(OC)C(O)C(C)O3)C(O)C(C)(O)CCC/C=C/C3CC(C)COC3(O)CC(O2)C1C (centres undefined)", "Measure name": "TGI", "Measured": "> 77.9 µM"}
{"Molecule": "CC(C)=CC(O)C(C(O)CCC1(C)OCCO1)S(=O)(=O)c1ccccc1 (centres undefined)", "Measure name": "TGI", "Measured": "> 100 µM"}

Q: I'd like to know its TGI. The molecule in question is "COc1ccc(/C=C/c2nsc(/C=C/c3ccc(OC)cc3)n2)cc1"
Result: > 100 µM
